Assay: self-splicing fitness, log relative to wild type (ln ratio); higher = more splicing; Tetrahymena group I intron in knt gene, E. coli kanamycin selection, DiMSum; sequences stand for … in CUCUCU…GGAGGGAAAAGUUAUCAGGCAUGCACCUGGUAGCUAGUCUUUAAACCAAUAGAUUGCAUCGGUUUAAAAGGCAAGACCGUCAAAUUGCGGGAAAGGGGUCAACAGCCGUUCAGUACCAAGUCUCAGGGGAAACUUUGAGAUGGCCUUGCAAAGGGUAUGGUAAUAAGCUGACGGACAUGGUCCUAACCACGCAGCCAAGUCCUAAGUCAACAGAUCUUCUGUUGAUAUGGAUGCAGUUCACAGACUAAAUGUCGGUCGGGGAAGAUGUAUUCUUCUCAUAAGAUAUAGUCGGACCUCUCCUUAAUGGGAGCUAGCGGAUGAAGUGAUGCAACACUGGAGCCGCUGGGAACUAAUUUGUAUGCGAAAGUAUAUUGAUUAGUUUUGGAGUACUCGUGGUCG;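 also: selection with 25 µg/mL kanamycin versus none on LB agar overnight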
Conditions: 37 °C
Readout type: self-splicing fitness (ln)

>>> numeric_readout("CCUAAGCAAUAUUACGCAUA")
-2.77
>>> numeric_readout("ACAUAGCAAUAUUACGCGCC")
0.199
>>> numeric_readout("UGUAAGCAAUAUUACGAAGG")
-1.92
>>> numeric_readout("AAAAAGCAAUAUUACGUGUU")
-1.22
>>> numeric_readout("AAACAGCAAUAUUACGGCAG")
-0.063
>>> numeric_readout("GCCGAGCAAUAUUACGAGCA")
-0.944
>>> numeric_readout("GUGUAGCAAUAUUACGUUUC")
-1.92
>>> numeric_readout("GAUGAGCAAUAUUACGCGUG")
-1.14
>>> numeric_readout("UGGCAGCAAUAUUACGACAG")
0.224
>>> numeric_readout("GUGAAGCAAUAUUACGUACU")
-0.0726
>>> numeric_readout("UACGAGCAAUAUUACGUCCU")
-1.38
>>> numeric_readout("CCGGAGCAAUAUUACGCGGC")
-2.33
>>> numeric_readout("GCUAAGCAAUAUUACGAACG")
0.22
>>> numeric_readout("GGGCAGCAAUAUUACGCCAU")
-1.21
>>> numeric_readout("UCCUAGCAAUAUUACGGAUA")
-0.547
>>> numeric_readout("AACGAGCAAUAUUACGACGA")
-0.282
